# System: SK-MEL-2 melanoma
# experimental.details: NCI tumour cell line growth inhibition, 48 h
readout.label: TGI (µM)
Please state the figure in µM; there is no need to write the unit.

Study these solved cases before continuing.
>>> recorded_number("CN(C)CCC=C1c2ccccc2C=Cc2ccccc21")
32.3
>>> recorded_number("CCCS(=O)(=O)Nc1ccc(F)c(C(=O)c2c[nH]c3ncc(Cl)cc23)c1F")
16.4
>>> recorded_number("CN1C2CCC1CN(CCOC(c1ccc(F)cc1)c1ccc(F)cc1)C2")
56.3

Next compound, TGI to be filled in.
Entry under review: C#C[C@]1(O)CC[C@H]2[C@@H]3CCC4=CC(=NCCOC(=O)c5cccc6cc7ccccc7nc56)CC[C@@H]4[C@H]3CC[C@@]21C . Reported TGI? 53.9

* * *

# System: MALME-3M melanoma
# experimental.details: NCI tumour cell line growth inhibition, 48 h
readout.label: TGI

Study these solved cases before continuing.
>>> result("O=C1C2C=CC(n3[nH]c(=O)n(Cc4ccccc4)c3=O)CC2C(=O)N1c1cccc(Cl)c1 (centres undefined)")
"> 100 µM"
>>> result("O=C(Nc1ccc(CN2CCOCC2)cc1)c1ccc(-c2cc(Cl)ccc2Cl)o1")
"29.2 µM"
>>> result("CN(C)N=Nc1ccccc1")
"> 100 µM"

Item Nc1ccc(C(c2ccccc2)(c2ccccc2)c2ccccc2)cc1 with MALME-3M melanoma - TGI? > 100 µM

Item Cc1cc(S(=O)(=O)n2ccnc2Oc2cccc(Cl)c2)c(SSc2cc(Cl)c(C)cc2S(=O)(=O)n2ccnc2Oc2cccc(Cl)c2)cc1Cl with MALME-3M melanoma - TGI? 41.1 µM

Item C#C[C@]1(O)CC[C@H]2[C@@H]3CCC4=CC(=NCCOC(=O)c5cccc6c(=O)c7ccccc7[nH]c56)CC[C@@H]4[C@H]3CC[C@@]21C with MALME-3M melanoma - TGI? 91.1 µM

Item COc1ccc(/C=C2\C(=O)N(C(=O)c3ccc(NC(C)=O)cc3)N=C2C)cc1 with MALME-3M melanoma - TGI? > 100 µM

Item O=C(NC(=S)Nc1ccccc1)c1ccc([N+](=O)[O-])cc1 with MALME-3M melanoma - TGI? > 100 µM

Item Cc1cc(NS(=O)(=O)c2ccc(NC(=O)c3cccn4c(=O)c5ccccc5nc34)cc2)no1 with MALME-3M melanoma - TGI? > 100 µM

* * *

# System: HCT-15 colon
# experimental.details: NCI tumour cell line growth inhibition, 48 h
The reader will find reported TGI values listed item by item below.

Study these solved cases before continuing.
>>> result("CN(C)CCCOc1ccc(OCCCN(C)C)c2c1C(=O)c1ccccc1C2=O")
"61.5 µM"
>>> result("C1CSCCCSCCCSCCCSCCCSC1")
"> 100 µM"
>>> result("COc1ccc2[nH]c(S(=O)(=O)N3CC(CCl)c4ccc(N)cc43)cc2c1 (configuration not stated)")
"26.4 µM"
>>> result("Cn1c(=O)[nH]c2nccnc2c1=O")
"> 10 µM"
>>> result("CCCc1onc(CCC(=O)N(Cc2ccccc2)Cc2ccccc2)c1CC")
"> 100 µM"
>>> result("CC(C)=CCc1c(O)c(CC=C(C)C)c2oc(-c3ccc(O)cc3O)c(CC=C(C)C)c(=O)c2c1O")
"23.8 µM"

Entry under review: CN1C2CCC1CN(CCOC(c1ccc(F)cc1)c1ccc(F)cc1)C2 . Reported TGI? > 100 µM

Entry under review: C=C1OC(=O)[C@]2([C@@H](/C=C/C)C=CC(=O)[C@H]2O)[C@@H]1O . Reported TGI? > 100 µM

Entry under review: ClCc1ccc(-c2ccc(Cn3cnc4nc(Cl)nc(Cl)c43)cc2)cc1 . Reported TGI? 13.9 µM

Entry under review: O=C1CN2C(Cl)(Cl)C2(c2ccccc2)c2cc(Cl)ccc2N1CC1CC1 (configuration not stated) . Reported TGI? 48.9 µM

Entry under review: Cc1ncc([N+](=O)[O-])n1CCNC(=O)CCCn1ccnc1[N+](=O)[O-] . Reported TGI? > 100 µM

Entry under review: COP(=O)(OC)/C(=C/c1c[nH]c2ccccc12)C(=O)O . Reported TGI? > 100 µM

Numbers sourced from PubChem BioAssay (NCI).
